measurement target: b-Raf (Homo sapiens, UniProt P15056, V600E)
Construct: endogenous in cells; host or cells: A2058 human melanoma cells
Sequence (P15056 whole entry V600E): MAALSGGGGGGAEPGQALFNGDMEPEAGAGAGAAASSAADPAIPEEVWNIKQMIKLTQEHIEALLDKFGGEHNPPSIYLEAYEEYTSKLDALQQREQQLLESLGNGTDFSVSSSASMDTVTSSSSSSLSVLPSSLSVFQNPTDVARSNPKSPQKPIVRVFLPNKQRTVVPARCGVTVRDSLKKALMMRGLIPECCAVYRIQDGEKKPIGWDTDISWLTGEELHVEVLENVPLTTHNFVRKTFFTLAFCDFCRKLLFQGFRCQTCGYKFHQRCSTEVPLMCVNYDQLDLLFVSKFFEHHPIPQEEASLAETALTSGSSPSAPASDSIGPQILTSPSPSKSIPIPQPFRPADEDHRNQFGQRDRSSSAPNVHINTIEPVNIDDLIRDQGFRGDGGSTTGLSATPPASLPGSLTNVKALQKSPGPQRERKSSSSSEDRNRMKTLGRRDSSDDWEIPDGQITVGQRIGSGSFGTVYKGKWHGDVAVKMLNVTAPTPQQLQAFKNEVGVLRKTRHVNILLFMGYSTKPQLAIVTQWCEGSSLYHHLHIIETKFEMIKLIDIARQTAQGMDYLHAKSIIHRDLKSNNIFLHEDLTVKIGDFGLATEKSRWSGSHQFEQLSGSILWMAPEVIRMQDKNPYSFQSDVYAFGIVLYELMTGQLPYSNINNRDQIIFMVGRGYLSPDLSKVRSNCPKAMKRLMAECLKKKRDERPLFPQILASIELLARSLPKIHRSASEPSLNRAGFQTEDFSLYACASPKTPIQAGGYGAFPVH
method summary: Raf cellular assay (phospho-Mek1/2 ELISA in A2058 cells)
Format: cell-based
condition notes: Table 2; human melanoma A2058 cells (b-Raf mutation), Mek1/2 Ser217/221 phosphorylation, 1 hour incubation; read-out: pMEK IC50
quantity measured: pIC50
pIC50 field: float, defined as -log10 of concentration (mol/L).

Below are worked cases with known answers.
mol=CC(C)n1cc(-c2ccnc(NCCn3ccccc3=O)n2)c(-c2cnc3[nH]ccc3c2)n1 measurement_target="b-Raf (Homo sapiens, UniProt P15056, V600E)" value_observed=6.27
mol=CC(C)n1cc(-c2ccnc(NCCc3cn[nH]c3)n2)c(-c2cnc3[nH]ccc3c2)n1 measurement_target="b-Raf (Homo sapiens, UniProt P15056, V600E)" value_observed=6.41
mol=CC(C)n1cc(-c2ccnc(NCCF)n2)c(-c2cnc3[nH]ccc3c2)n1 measurement_target="b-Raf (Homo sapiens, UniProt P15056, V600E)" value_observed=6.74
mol=CC(C)n1cc(-c2ccnc(NCCn3cccn3)n2)c(-c2cnc3[nH]ccc3c2)n1 measurement_target="b-Raf (Homo sapiens, UniProt P15056, V600E)" value_observed=6.83
mol=C[C@H](O)CNc1nccc(-c2cn(CC3(C)COC3)nc2-c2cnc3[nH]cc(Cl)c3c2)n1 measurement_target="b-Raf (Homo sapiens, UniProt P15056, V600E)" value_observed=6.73

Task: Look up and state reported pIC50 for `CC(C)n1cc(-c2ccnc(NCCO)n2)c(-c2cnc3[nH]ccc3c2)n1`
Result: 6.43
